Below, each of the compounds is paired with its reported pIC50 value.
target: Active Human ERK2 (hERK2) (Homo sapiens (Human), UniProt P28482); experiment: Active Human ERK2 (hERK2) Activity Assay (IMAP-FP); format: biochemical; conditions: phosphorylated active hERK2, 30 μM ATP; average; read-out: ERK 2 Human average IC50
Sequence (P28482 whole entry): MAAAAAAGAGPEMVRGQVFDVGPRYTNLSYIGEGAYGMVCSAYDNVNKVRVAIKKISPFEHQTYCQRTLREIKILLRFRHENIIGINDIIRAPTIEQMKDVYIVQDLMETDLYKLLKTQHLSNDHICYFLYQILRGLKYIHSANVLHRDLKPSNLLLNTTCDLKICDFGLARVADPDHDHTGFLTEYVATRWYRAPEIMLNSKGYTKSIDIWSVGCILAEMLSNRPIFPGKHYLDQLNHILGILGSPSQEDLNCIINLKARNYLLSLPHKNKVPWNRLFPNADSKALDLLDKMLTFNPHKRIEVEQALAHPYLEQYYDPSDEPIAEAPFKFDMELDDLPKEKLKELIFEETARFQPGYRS
When answering, recall that pIC50 equals minus log10 of the concentration in mol/L, and write that number alone.

Below, 3 compounds whose answers are already recorded.
C[C@@H](NC(=O)Nc1cc2[nH]nc(-c3cnc(N(C)S(C)(=O)=O)nc3)c2cn1)c1ccccc1 | 8.44
Cc1cc(-c2n[nH]c3cc(NC(=O)NCCF)ncc23)ccn1 | 8.31
Cc1cc(-c2n[nH]c3cc(NC(=O)NCc4cnsc4)ncc23)ccn1 | 9.23

Now look at this entry.
Value sought: pIC50, system Active Human ERK2 (hERK2) (Homo sapiens (Human), UniProt P28482), item CC(C)Oc1ccc(-c2n[nH]c3cc(NC(=O)N[C@H](C)c4ccc(F)cc4)ncc23)cn1 . Result: 8.63
